Test system: LOX IMVI
Assay Summary: NCI tumour cell line growth inhibition, 48 h
The source made the active and inactive calls. No stated cut-off is given here; in the data, active = GI50 up to about 1.1 µM and inactive = higher.
Respond only with the outcome that fits, drawn from t (active), f (inactive)

Worked cases, answers included:
Cc1ccc(-n2cc(-c3ccc(Cl)cc3)c3c2N=CN2N=C(c4ccco4)NC32)cc1 (stereo not given) | f
CCOP(=O)(OCC)c1cc2cc(O)ccc2oc1=O | f
Cc1nc2c(n1CCN(C)C)C(=O)c1ccccc1C2=O | f
N#Cc1c(N)n(C2OC(CO)C(O)C2O)c2ncnc(N)c12 (stereo not given) | t
CC(C)(O)c1cc2c(cc1C(C)(C)O)-c1ccccc1-2 | f

Q: Call for entry CC(C)c1[nH]nc(C(N)=O)c1/N=N/N(C)C :
Ans: f

Q: Call for entry Brc1ccc2c(c1)C1=C(CO2)Cc2ccccc2O1 :
Ans: f

Q: Call for entry COc1cc(-c2cn(S(=O)(=O)c3ccc(C)cc3)c3ccccc23)nc(-c2cn(S(=O)(=O)c3ccc(C)cc3)c3ccccc23)n1 :
Ans: t

* * *

System: BT-549
Assay Summary: NCI tumour cell line growth inhibition, 48 h
Calls of active or inactive are those of the source. Cut-off read from the data, not from the text of the source: active = GI50 up to about 1.1 µM and inactive = higher.
The following molecules are listed with their measured GI50 values.

Per the record, CNC(=O)Nc1nc2cc([N+](=O)[O-])ccc2[nH]1 has GI50 of 49.9 µM (inactive)

Per the record, C(=N\C12CC3CC(CC(C3)C1)C2)/C1CCCCC1 has GI50 of > 100 µM (inactive)

Per the record, CCN(CC)Cc1cc(Nc2c3ccccc3nc3c2[nH]c2ccccc23)cc(CN(CC)CC)c1O has GI50 of 1.41 µM (inactive)

Per the record, S=C1Cc2c(-c3ccc(Cl)cc3)cc(-c3ccccc3)nc2-c2ccccc2N1 has GI50 of 16.6 µM (inactive)

Per the record, COc1ccc(-c2cc(-c3ccco3)c(C#N)c(=S)n2C2OC(CO)C(O)C(O)C2O)cc1 (stereo not given) has GI50 of > 100 µM (inactive)

Per the record, O=C(COc1ccc(OCC(=O)N2C(=O)CS/C2=N\c2ccccc2)cc1)N1C(=O)CS/C1=N\c1ccccc1 has GI50 of 18 µM (inactive)

Per the record, Cn1ncc2[nH]cnc2c1=S has GI50 of > 100 µM (inactive)

Per the record, Cc1cccc2c(N)c3cccc(C(=O)NCC[N+](C)(C)Cc4c([N+](=O)[O-])ncn4C)c3nc12 has GI50 of 46.1 µM (inactive)

Per the record, O=C(N/N=C\c1ccc([N+](=O)[O-])cc1)Nc1ccc2ccccc2c1 has GI50 of 45.4 µM (inactive)

Per the record, O=c1c2cccnc2cc(-c2ccccc2)n1CCO has GI50 of > 100 µM (inactive)

* * *

Test system: UO-31
Assay Summary: NCI tumour cell line growth inhibition, 48 h
The source made the active and inactive calls. No stated cut-off is given here; in the data, active = GI50 up to about 1.1 µM and inactive = higher.
The following compounds are listed with their measured GI50 values.

CCOc1ccccc1NC(=O)C(C#N)C1=C(Cl)C(=O)c2ccccc2C1=O (centres undefined) | 1.73 µM (inactive)
Cc1nc2c(n1CCN(C)C)C(=O)c1ccccc1C2=O | 21 µM (inactive)
CC1OC2OC3C(OCC(O)C3O)OC(=O)[C@]34CCC(C)(C)CC3C3=CCC5[C@@]6(C)C[C@H](O)[C@H](OC7OC(CO)C(O)C(O)C7OC7OC(COC(=O)CC(C)(O)CC(=O)OC1C(O)C2O)C(O)C(O)C7O)[C@@](C)(CO)C6CC[C@@]5(C)[C@]3(C)CC4 (some centres undefined) | 1.22 µM (inactive)
CN(C)CCSc1cccc(-c2cc(-c3cccc(SCCN(C)C)c3)nc(SCCN(C)C)n2)c1 | 12.8 µM (inactive)
COc1ccc(/C(Br)=C2\OC(=O)c3ccccc32)cc1 | > 10 µM (inactive)
C=CCN(Cc1ccncc1)C(=O)C(O)(c1ccccc1)c1ccccc1 | 17.5 µM (inactive)
O=C1/C(=C/c2ccc(Cl)cc2)CCC1CN1CCOCC1 (centres undefined) | 9.08 µM (inactive)
COc1cc2c[n+](C)c3c4ccccc4ccc3c2cc1OC | > 75.5 µM (inactive)

Next compound, GI50 to be filled in.
Per the record, COc1cc(C(c2cccc3ccccc23)N2C(=O)CCC2C(=O)O)cc(OC)c1OC (centres undefined) has GI50 of > 100 µM (inactive)

* * *

System: UO-31
Assay Summary: NCI tumour cell line growth inhibition, 48 h
Active and inactive are the calls of the source. No stated cut-off is given here; in the data, active = GI50 up to about 1.1 µM and inactive = higher.
Respond only with the outcome that fits, drawn from active, inactive

CN(C)/N=C(/c1nc2ccc([N+](=O)[O-])cc2nc1O)C(O)c1ccco1 (centres undefined) | inactive
CC(C)(c1ccccc1)c1ccc(Oc2ccc3c(c2)-c2nc-3nc3[nH]c(nc4nc(nc5[nH]c(n2)c2ccc(Oc6ccc(C(C)(C)c7ccccc7)cc6)cc52)-c2cc(Oc5ccc(C(C)(C)c6ccccc6)cc5)ccc2-4)c2ccc(Oc4ccc(C(C)(C)c5ccccc5)cc4)cc32)cc1 | inactive
CC(=O)NCCSC(=O)c1ccccc1 | active
CC(=O)OCC1=C(C(=O)O)N2C(=O)C(NC(=O)CSc3ccncc3)C2SC1 (centres undefined) | inactive
CC(C)(C)OC(=O)NCC(=O)NC1C/C(=N\O)c2sccc21 (centres undefined) | inactive
COC(=O)/C(=N\NC(C)(C)C)C(C(=O)OC)C(=O)C(=O)Nc1cc(Cl)ccc1Cl (centres undefined) | inactive
C=CCOC(=O)C[C@H](NC(=O)[C@H](Cc1ccc(O)cc1)NCC(F)(F)F)C(=O)OCC=C | inactive
CC(C)C(C/C=C1\CC(CO)(COC(=O)C(C)(C)C)OC1=O)C(C)C (centres undefined) | inactive

Okay, now this compound:
Q: Call for entry CNC(=O)Nc1nc2cc([N+](=O)[O-])ccc2[nH]1 :
Ans: inactive

* * *

The following compounds are listed with their measured GI50 values.
Tested on: U-251
Assay Summary: NCI tumour cell line growth inhibition, 48 h
The source made the active and inactive calls. No stated cut-off is given here; in the data, active = GI50 up to about 1.1 µM and inactive = higher.

Clc1ccc(C[P+](c2ccccc2)(c2ccccc2)c2ccccc2)c(Cl)c1 | 2.49 µM (inactive)
S=C1Cc2c(-c3ccc(Cl)cc3)cc(-c3ccccc3)nc2-c2ccccc2N1 | 4.03 µM (inactive)
Cc1nc([N+](=O)[O-])cn1CC(=N)N | > 100 µM (inactive)
Cc1ccc(C)c(N2C(=O)C(=O)C(c3nc4ccccc4s3)/C(=N\c3cccc4c(=O)[nH][nH]c(=O)c34)C2=O)c1 (stereo not given) | > 100 µM (inactive)

Next compound, GI50 to be filled in.
Per the record, C=CCOC(=O)C[C@H](NC(=O)[C@H](Cc1ccc(O)cc1)NCC(F)(F)F)C(=O)OCC=C has GI50 of > 100 µM (inactive)

* * *

System: T47D
Assay Summary: NCI tumour cell line growth inhibition, 48 h
Active and inactive are the calls of the source. Cut-off read from the data, not from the text of the source: active = GI50 up to about 1.1 µM and inactive = higher. Positions of bridges follow the written chain, without caps; N, C: chain ends. Residues, ends and D or L forms follow the SMILES beside them.
Respond only with the outcome that fits, drawn from true = active, false = inactive

O=C(CC(=O)N1N=C(N(c2ccccc2)c2ccccc2)CC1c1ccccc1)Nc1cccc(Cl)c1 (stereo unspecified) | false
CC1=CC(c2ccccc2)OP1(=O)c1ccccc1 (stereo unspecified) | false
O=[N+]([O-])c1cccc2nc3ccccc3c(NCCCn3ccnc3[N+](=O)[O-])c12 | true
O=C1C/C(=N/c2ccc(Cl)cc2)C(c2ccccc2)N1c1ccccc1 (stereo unspecified) | false
Cc1c(C(=O)O)n2cnnc2c2ccccc12 | false
CCOC(=O)NC(Nc1ccc(Cl)cn1)(C(F)(F)F)C(F)(F)F | false
COc1cc2c(cc1OC)C1Cc3cc(OC)c(OC)cc3C(C2)N1C | false
COc1ccc(C[C@@H]2CN(C(=O)c3ccccc3)[C@H](Cc3ccc(O)cc3)CN2C(=O)c2ccccc2)cc1Br | false

Q: Call for entry COc1ccc(OC)c(/N=C/c2cc(OC)c(OC)c(OC)c2)c1 :
Ans: false

Q: Call for entry COC(=O)C1CCC(=O)NCCCCC(NC(=O)C(N)CC(=O)O)C(=O)N1 (stereo not drawn) (H-Asp-Lys-Glu-OMe; lactam 2-3; configuration not given here) :
Ans: false

Q: Call for entry CC(O)c1cc2c(s1)C(=O)c1sccc1C2=O (stereo unspecified) :
Ans: true

* * *

Tested on: SF-295
Assay Summary: NCI tumour cell line growth inhibition, 48 h
The source made the active and inactive calls. Rule as the data show it: active = GI50 up to about 1.1 µM and inactive = higher.
Measure: GI50

Some molecules with recorded GI50:
CN(C)CCCN1C(=S)N(CCCN(C)C)c2c3ccccc3nc3c([N+](=O)[O-])ccc1c23 | 8.38 µM (inactive)
COc1ccc(C2S/C(=C\c3ccc(OC)cc3OC)C(=O)N2NC(=O)Cc2ccccc2)cc1 (stereo not given) | > 100 µM (inactive)

Per the record, CC(=O)NCCSC(=O)c1ccccc1 has GI50 of 0.147 µM (active)

Per the record, CC(=O)CSCc1ccccn1 has GI50 of 80.9 µM (inactive)

Per the record, COc1cc(/C=C/C(=O)Oc2ccc(NC(C)=O)cc2)ccc1C(=O)O/C=C/c1ccccc1 has GI50 of > 100 µM (inactive)

Per the record, COc1cccc(/C=C2\S/C(=N/Nc3nc(C)c(C)s3)NC2=O)c1O has GI50 of > 100 µM (inactive)

Per the record, Cc1cc(N(CCC#N)CCC#N)ccc1/N=N/c1ccc(S(N)(=O)=O)cc1 has GI50 of > 100 µM (inactive)

Per the record, C/C1=C\[C@H](C)C[C@H](C)OC(=O)C[C@H](c2ccc(O)cc2)NC(=O)[C@H](Cc2ccc(O)c(I)c2)N(C)C(=O)[C@H](C)NC(=O)[C@@H](C)C1 has GI50 of 0.0778 µM (active)

Per the record, CCCC(C)n1c(C)nc2c1C(=O)c1ccccc1C2=O (stereo not given) has GI50 of 23.7 µM (inactive)

Per the record, Cc1nn(C(=O)CC(=O)Nc2ccc(Cl)cc2)c(C)c1/N=N/c1ccccc1C(=O)O has GI50 of > 100 µM (inactive)

Data provenance is ChEMBL document CHEMBL1201862.
